The values you see were collected from patent US5095014A.

# System: tonic seizures (electrically induced convulsions)
# experimentalProtocol: Maximal Electroshock (percent protection from tonic seizures)
# Type: in vivo
# assayConditions: Mus musculus, ip, 0.5 h; mice, intraperitoneal, 30 minutes prior to electrical challenge
measurementType: log10(ED50) (log10 of the value in mg/kg)

givenSmiles | log10(ED50)
Cc1cccc(Cl)c1OC1CN(C(N)=O)C1 | 1.91
CNC(=O)N1CC(Oc2ccccc2C(F)(F)F)C1 | 2.10
CNC(=O)N1CC(Oc2ccc(C(F)(F)F)cc2)C1 | 1.41
CNC(=O)N1CC(Oc2ccc(Cl)cc2Cl)C1 | 1.27
CNC(=O)N1CC(Oc2cccc(Cl)c2)C1 | 1.66
CNC(=O)N1CC(Oc2cccc(C(F)(F)F)c2)C1 | 1.46
CNC(=O)N1CC(Oc2ccc(C(F)(F)F)cc2Cl)C1 | 0.81
NC(=O)N1CC(Oc2ccc(C(F)(F)F)cc2Cl)C1 | 0.93
CNC(=O)N1CC(Oc2ccc(Cl)cc2)C1 | 1.38
CN(C)C(=O)N1CC(Oc2ccc(C(F)(F)F)cc2Cl)C1 | 0.91
CNC(=O)N1CC(Oc2ccc(Cl)c(Cl)c2)C1 | 1.60
CNC(=O)N1CC(Oc2ccc(F)cc2Cl)C1 | 1.65
C=CCNC(=O)N1CC(Oc2ccc(C(F)(F)F)cc2Cl)C1 | 0.98
CNC(=O)N1CC(Oc2c(C)cccc2Cl)C1 | 1.72
